Origin of measurements: patent US8642067B2

Assay: in vivo
Details: female, albino, rabbit
Recorded metric: half-life (h)
Give bare numbers, in h.

// query Data request, read-out half-life, for `Nc1ccc2c(c1)/C(=C1\C(=O)Nc3ccc(Cl)cc31)OC2`
// result 2.59

* * *

Experiment: in vivo
Conditions: female, albino, rabbit
Recorded metric: Vd (L)
Answers are plain numbers, in L.

// query Data request, read-out Vd, for `Nc1ccc2c(c1)/C(=C1\C(=O)Nc3ccc(Cl)cc31)OC2`
// result 0.000705
